Give IC50 for every item shown.
- experiment: microbe, parasite or virus in culture
- protocolConditions: Mycobacterium tuberculosis, 96 h, read-out: pIC50 (converted)

I am curious: what IC50 value has been reported for CCCn1nnc(NC(=O)c2ccccc2F)n1 ?
> 501 µM

Next record, please: NCc1nc(-c2cccc(Cl)c2)no1
> 501 µM

Next record, please: Cc1cc(Br)cc(C(=O)NCc2nccc(N)n2)c1
> 501 µM

Next record, please: O=C(CNC(=O)c1cccs1)c1ccccc1
> 501 µM

Next record, please: CCc1ccccc1NC(=O)NCc1nnc(SC)n1C
> 50.1 µM

Next record, please: O=C(CSc1cnn[nH]1)OCc1ccccc1
> 501 µM

Next record, please: CS(=O)(=O)Cc1ccccc1NCc1ccsc1
> 501 µM

Next record, please: CCc1nnc(NC(=O)N(CCOC)Cc2ccc(C)o2)s1
> 50.1 µM
